B1: UBE2R2 (parent)
chain: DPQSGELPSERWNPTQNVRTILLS

Variants of: B1
assay.comment: protein stability index of a GFP-peptide fusion (GPS, HEK-293T) (PSI 1-6); higher = more stable;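 further: lentivirally expressed fusions sorted by FACS into six bins by GFP to DsRed ratio, PSI derived from sequencing read proportions per bin multiplied by bin number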
assay.setup: c terminus: a fixed tail appended
Respond with met for protein stability index values of 4 and above, not met for values below.

mutation.descriptor: S4N
answer.label: not met
--
mutation.descriptor: N13L
answer.label: not met
--
mutation.descriptor: S24V
answer.label: not met
--
mutation.descriptor: R19P
answer.label: not met
--
mutation.descriptor: E10K
answer.label: not met
--
mutation.descriptor: E6S
answer.label: not met
--
mutation.descriptor: P8H
answer.label: not met
--
mutation.descriptor: L7P
answer.label: met
--
mutation.descriptor: S24N
answer.label: not met
--
mutation.descriptor: I21M
answer.label: met
--
mutation.descriptor: T20E
answer.label: not met
--
mutation.descriptor: P8W
answer.label: not met
--
mutation.descriptor: R11G
answer.label: met
--
mutation.descriptor: R11H
answer.label: not met
--
mutation.descriptor: E6A
answer.label: not met
--
mutation.descriptor: G5C
answer.label: not met
--
mutation.descriptor: N17E
answer.label: not met
--
mutation.descriptor: L7A
answer.label: met
--
mutation.descriptor: I21W
answer.label: not met
--
mutation.descriptor: P14R
answer.label: met
--
mutation.descriptor: S24L
answer.label: not met
--
mutation.descriptor: N13W
answer.label: not met
--
mutation.descriptor: E10G
answer.label: not met
--
mutation.descriptor: W12G
answer.label: met
--
mutation.descriptor: P14A
answer.label: not met
--
mutation.descriptor: I21T
answer.label: met
--
mutation.descriptor: T20M
answer.label: not met
--
mutation.descriptor: E10H
answer.label: not met
--
mutation.descriptor: S9A
answer.label: met
--
mutation.descriptor: P2A
answer.label: not met
--
mutation.descriptor: R11W
answer.label: not met
--
mutation.descriptor: S24K
answer.label: met
--
mutation.descriptor: P2N
answer.label: not met
--
mutation.descriptor: S9D
answer.label: not met
--
mutation.descriptor: T15P
answer.label: not met
--
mutation.descriptor: P8A
answer.label: met
--
mutation.descriptor: Q16W
answer.label: not met
--
mutation.descriptor: D1L
answer.label: not met
--
mutation.descriptor: L7W
answer.label: not met
--
mutation.descriptor: L22E
answer.label: met
--
mutation.descriptor: T20W
answer.label: not met
--
mutation.descriptor: P14M
answer.label: not met
--
mutation.descriptor: L23T
answer.label: met
--
mutation.descriptor: P8L
answer.label: not met
--
mutation.descriptor: S9G
answer.label: not met
--
mutation.descriptor: G5K
answer.label: not met
--
mutation.descriptor: N13T
answer.label: not met
--
mutation.descriptor: L23Y
answer.label: not met
--
mutation.descriptor: N17F
answer.label: not met
--
mutation.descriptor: R11S
answer.label: not met
--
mutation.descriptor: N17Y
answer.label: not met
--
mutation.descriptor: I21S
answer.label: met
--
mutation.descriptor: T15Y
answer.label: not met
--
mutation.descriptor: P2V
answer.label: not met
--
mutation.descriptor: E6L
answer.label: not met
--
mutation.descriptor: N17G
answer.label: met
--
mutation.descriptor: Q3N
answer.label: not met
--
mutation.descriptor: T15G
answer.label: not met
--
mutation.descriptor: P8Y
answer.label: not met
--
mutation.descriptor: E6K
answer.label: not met
--
mutation.descriptor: P14Y
answer.label: not met
--
mutation.descriptor: W12R
answer.label: met
--
mutation.descriptor: S4A
answer.label: not met
--
mutation.descriptor: S4K
answer.label: not met
--
mutation.descriptor: G5F
answer.label: not met
--
mutation.descriptor: Q3I
answer.label: not met
--
mutation.descriptor: N17K
answer.label: not met
--
mutation.descriptor: E10Y
answer.label: not met
--
mutation.descriptor: E10M
answer.label: not met
--
mutation.descriptor: T20H
answer.label: not met
--
mutation.descriptor: S4V
answer.label: not met
--
mutation.descriptor: N13A
answer.label: not met
--
mutation.descriptor: E6I
answer.label: not met
--
mutation.descriptor: R19D
answer.label: met
--
mutation.descriptor: N13V
answer.label: not met
--
mutation.descriptor: R11P
answer.label: not met
--
mutation.descriptor: E10N
answer.label: not met
--
mutation.descriptor: S4D
answer.label: not met
